Measurement description: melting temperature; fluorescence melt of hairpins on a sequencing array, two-state fit, raised by 9.35 °C to match UV melts
Details: sodium 0.088 M
Reported Tm by item:
A number alone suffices; assume °C.

Below, each entry is followed by its recorded Tm result.
>  <Residue codes>
CGAGGCGGAAACGCTCG (((.(((....))))))

>  <Tm, °C>
51

$$$$
>  <Residue codes>
GGATTCCGAAAGGATCC (((.(((....))))))

>  <Tm, °C>
49.6

$$$$

Attention now turns to another entry.
Incoming: Indicate its recorded Tm; the sequence in question is GCAAAGACGAAAGTCTGC (((..(((....))))))
Outgoing: 50.2

----------
Reported Tm by item:
Measurement description: melting temperature; fluorescence melt of hairpins on a sequencing array, two-state fit, raised by 9.35 °C to match UV melts
Details: sodium 0.088 M
A number alone suffices; assume °C.

Below, each entry is followed by its recorded Tm result.
>  <Residue codes>
GTGATGAAAATCAC (((((....)))))

>  <Measured endpoint>
Tm

>  <Measured number>
49.6

$$$$
>  <Residue codes>
GTGTATGGAAACATACGC (.(((((....))))).)

>  <Measured endpoint>
Tm

>  <Measured number>
48.5

$$$$

Incoming: Indicate its recorded Tm; the sequence in question is GCGACCCTTCGC ((((....))))
Outgoing: 51.1

----------
Measurement description: melting temperature; fluorescence melt of hairpins on a sequencing array, two-state fit, raised by 9.35 °C to match UV melts
Details: sodium 0.088 M
Measured endpoint: Tm (°C)
A number alone suffices; assume °C.

Below, each entry is followed by its recorded Tm result.
>  <Residue codes>
GATGGGAAACCATC (((((....)))))

>  <Tm (°C)>
49.9

$$$$
>  <Residue codes>
GCGTAGCGAAAGCTCCGC (((.(((....))).)))

>  <Tm (°C)>
49.7

$$$$
>  <Residue codes>
GATCTGTCACCAGATC ((((((....))))))

>  <Tm (°C)>
49.4

$$$$
>  <Residue codes>
GTCCGCGGAAACGCGAAC ((.((((....)))).))

>  <Tm (°C)>
50.9

$$$$
>  <Residue codes>
GATCACTATAGTGATC ((((((....))))))

>  <Tm (°C)>
58.8

$$$$

Incoming: Indicate its recorded Tm; the sequence in question is GCCTAGCGAAAGCTGCGC ((..(((....)))..))
Outgoing: 49.6

Incoming: Indicate its recorded Tm; the sequence in question is GATCCCGGGTGGGATC ((((((....))))))
Outgoing: 60.3

Incoming: Indicate its recorded Tm; the sequence in question is GTCGAAGGAAACTTCGGC (.(((((....))))).)
Outgoing: 51.3

----------
Reported Tm by item:
Measurement description: melting temperature; fluorescence melt of hairpins on a sequencing array, two-state fit, raised by 9.35 °C to match UV melts
Details: sodium 0.088 M
A number alone suffices; assume °C.

>  <Residue codes>
GATTGCGAAAGCATAATC ((((((....)))..)))

>  <Scale unit>
°C

>  <Measured number>
33.1

$$$$
>  <Residue codes>
GATCATGCCAATGATC ((((((....))))))

>  <Scale unit>
°C

>  <Measured number>
58.5

$$$$
>  <Residue codes>
GATCAGCTGCTGATC ((((((...))))))

>  <Scale unit>
°C

>  <Measured number>
50.7

$$$$
>  <Residue codes>
GATCGAGATTCGATC ((((((...))))))

>  <Scale unit>
°C

>  <Measured number>
50.4

$$$$
>  <Residue codes>
GGGTCAGGAAACTGGTCC ((..(((....)))..))

>  <Scale unit>
°C

>  <Measured number>
39.9

$$$$

Incoming: Indicate its recorded Tm; the sequence in question is GATCGTCAGGACGATC ((((((....))))))
Outgoing: 58.3

Incoming: Indicate its recorded Tm; the sequence in question is GCATCGCGAAAGCTCTGC (((..((....))..)))
Outgoing: 36.8

Incoming: Indicate its recorded Tm; the sequence in question is GGGACTGCGAAAGCACCC (((..(((....))))))
Outgoing: 37.3

Incoming: Indicate its recorded Tm; the sequence in question is GCACCCGGAAACGGGCGC ((.((((....)))).))
Outgoing: 61.5

Incoming: Indicate its recorded Tm; the sequence in question is GCGCCGCGAAAGCAGGGC ((.(.((....)).).))
Outgoing: 57.4

Incoming: Indicate its recorded Tm; the sequence in question is GGGGTCGAAAGACGGCCC ((((((....)))..)))
Outgoing: 48.9

Incoming: Indicate its recorded Tm; the sequence in question is GGGATCGAAAGATTACCC ((((((....)))..)))
Outgoing: 32.4

Incoming: Indicate its recorded Tm; the sequence in question is GGGCCCGGAAACGAGCCC ((((.((....)).))))
Outgoing: 57.5

----------
Measurement description: folding enthalpy; higher = less favourable; fluorescence melt of hairpins on a sequencing array, two-state fit
Details: sodium 0.088 M
Measured endpoint: folding enthalpy (kcal/mol)
A number alone suffices; assume kcal/mol.

Below, each entry is followed by its recorded folding enthalpy result.
>  <Residue codes>
GCAAAACGAAAGTTTGC (((.(((....))))))

>  <folding enthalpy, kcal/mol>
-30.6

$$$$
>  <Residue codes>
GACATAGGAAACCATGTC (((((.(....).)))))

>  <folding enthalpy, kcal/mol>
-29.1

$$$$
>  <Residue codes>
GGGGTCGGAAACGGCCTC (.((.((....)).)).)

>  <folding enthalpy, kcal/mol>
-26.4

$$$$

Incoming: Indicate its recorded folding enthalpy; the sequence in question is GAGGCAACGAAAGTTCTC (((..(((....))))))
Outgoing: -11.3

Incoming: Indicate its recorded folding enthalpy; the sequence in question is GAGGTCGGAAACGGTCTC (((..((....))..)))
Outgoing: -23.4

Incoming: Indicate its recorded folding enthalpy; the sequence in question is GCGTTTTCACGC ((((....))))
Outgoing: -24.6

----------
Measurement description: melting temperature; fluorescence melt of hairpins on a sequencing array, two-state fit, raised by 9.35 °C to match UV melts
Details: sodium 0.088 M
Note to self: Tm under 50 °C means label 1, ties and anything higher get label 0.

>  <Residue codes>
GCAAGGCGAAAGCACTGC (((..((....))..)))

>  <Label class>
label 1

$$$$
>  <Residue codes>
GTTGAGGGAAACTTCGAC ((.((.(....).)).))

>  <Label class>
label 1

$$$$

Incoming: Say whether its Tm is strictly beneath 50 °C. Entry: GCCTGGGGAAACCTAGGC ((((.((....)).))))
Outgoing: label 0

Incoming: Say whether its Tm is strictly beneath 50 °C. Entry: GGTAGCGAAAGCTTTACC ((((((....)))..)))
Outgoing: label 1

Incoming: Say whether its Tm is strictly beneath 50 °C. Entry: GCTTTGCGAAAGCAATGC ((.((((....)))).))
Outgoing: label 0

Incoming: Say whether its Tm is strictly beneath 50 °C. Entry: GATCCTGGCAGGATC ((((((...))))))
Outgoing: label 0

Incoming: Say whether its Tm is strictly beneath 50 °C. Entry: GATCCCCCCCGGGATC ((((((....))))))
Outgoing: label 0

Incoming: Say whether its Tm is strictly beneath 50 °C. Entry: GGTGGCCGAAAGGCGACC (((.(((....))).)))
Outgoing: label 0

----------
Measurement description: folding enthalpy; higher = less favourable; fluorescence melt of hairpins on a sequencing array, two-state fit
Details: sodium 0.088 M
Threshold rule: folding enthalpy greater than or equal to -20 kcal/mol is Y; below that, N.

>  <Residue codes>
GGAGTGGGAAACTGCTCC ((((..(....)..))))

>  <Label class>
N

$$$$
>  <Residue codes>
GCACTGGGAAACCAATGC (((.(((....))).)))

>  <Label class>
N

$$$$
>  <Residue codes>
GTTGCCGAAAGGCAAAC ((((((....))).)))

>  <Label class>
Y

$$$$

Incoming: Form field: folding enthalpy at least -20 kcal/mol? Entry: GCGATGCGAAAGCCTAGC ((.(.((....)).).))
Outgoing: N

Incoming: Form field: folding enthalpy at least -20 kcal/mol? Entry: GCCGACGAAAGTCTCGGC ((((((....)))..)))
Outgoing: N

----------
Measurement description: folding enthalpy; higher = less favourable; fluorescence melt of hairpins on a sequencing array, two-state fit
Details: sodium 0.088 M
Reported folding enthalpy by item:
Write down the value, and be sure its unit follows.

>  <Residue codes>
GCGATGTCGAAAGACCGC (((..(((....))))))

>  <folding enthalpy>
-123 kJ/mol

$$$$
>  <Residue codes>
GAGTGACGAAAGTCCTC (((.(((....))))))

>  <folding enthalpy>
-81.4 kJ/mol

$$$$
>  <Residue codes>
GATCAGCTACCTGATC ((((((....))))))

>  <folding enthalpy>
-167 kJ/mol

$$$$

Incoming: Indicate its recorded folding enthalpy; the sequence in question is GATCCCCCGGGGATC ((((((...))))))
Outgoing: -132 kJ/mol

Incoming: Indicate its recorded folding enthalpy; the sequence in question is GCTCGTGGAAACGCGAGC (((((.(....).)))))
Outgoing: -200 kJ/mol

Incoming: Indicate its recorded folding enthalpy; the sequence in question is GCTAGACCGAAAGGTAGC (((..(((....))))))
Outgoing: -80.5 kJ/mol

Incoming: Indicate its recorded folding enthalpy; the sequence in question is GCTTTTCGAAAGAACAGC (((.(((....))).)))
Outgoing: -133 kJ/mol

Incoming: Indicate its recorded folding enthalpy; the sequence in question is GATCGCCTGAGCGATC ((((((....))))))
Outgoing: -122 kJ/mol

Incoming: Indicate its recorded folding enthalpy; the sequence in question is GGGGCTCCGAAAGGACCC (((..(((....))))))
Outgoing: -148 kJ/mol

Incoming: Indicate its recorded folding enthalpy; the sequence in question is GCGATGCGAAAGCCGCGC (((..((....))..)))
Outgoing: -116 kJ/mol

Incoming: Indicate its recorded folding enthalpy; the sequence in question is GGCCAAGGAAACTTAGCC (((.(((....))).)))
Outgoing: -103 kJ/mol

Incoming: Indicate its recorded folding enthalpy; the sequence in question is GTAAACGAAAGTTTCTAC ((((((....)))..)))
Outgoing: -51.5 kJ/mol

Incoming: Indicate its recorded folding enthalpy; the sequence in question is GTCAACACGAAAGTGGAC (((..(((....))))))
Outgoing: -80.8 kJ/mol

Incoming: Indicate its recorded folding enthalpy; the sequence in question is GCCTTGCGAAAGCAGGGC (((.(((....))).)))
Outgoing: -123 kJ/mol

Incoming: Indicate its recorded folding enthalpy; the sequence in question is GGTGTGAAAACACC (((((....)))))
Outgoing: -129 kJ/mol

Incoming: Indicate its recorded folding enthalpy; the sequence in question is GCGATTGCGAAAGCACGC (((..(((....))))))
Outgoing: -84 kJ/mol

Incoming: Indicate its recorded folding enthalpy; the sequence in question is GGGACTGGAAACAGTTCC ((.((((....)))).))
Outgoing: -151 kJ/mol

Incoming: Indicate its recorded folding enthalpy; the sequence in question is GGTTGGGGAAACCCAGCC ((.((((....)))).))
Outgoing: -180 kJ/mol
